- Tested on: K. pneumoniae NCTC418
- RUN CONDITIONS: MH broth pH 7.4, 16–20 h, 37 °C
MEASURE: MIC K. pneumoniae NCTC418

- COMPOUND SMILES: "CC(C)C[C@H](NC(=O)[C@H](CC(C)C)NC(=O)[C@H](CC(C)C)NC(=O)[C@@H](CCCCN)NC(=O)[C@@H](CC(C)C)NC(=O)[C@@H](CC(C)C)NC(=O)[C@@H](CCCCN)NC(=O)[C@@H](CC(C)C)NC(=O)[C@H](CC(C)C)NC(=O)[C@H](CCCCN)NC(=O)[C@@H](N)CCCCN)C(N)=O"
  TARGET SYSTEM: "K. pneumoniae NCTC418"
  TEST RESULT: "64 µg/mL"

Can you share its MIC K. pneumoniae NCTC418? I mean this compound: CC(C)C[C@H](NC(=O)[C@@H](CC(C)C)NC(=O)[C@@H](CC(C)C)NC(=O)[C@H](CCCCN)NC(=O)[C@H](CC(C)C)NC(=O)[C@H](CC(C)C)NC(=O)[C@H](CCCCN)NC(=O)[C@H](CC(C)C)NC(=O)[C@@H](CC(C)C)NC(=O)[C@@H](CCCCN)NC(=O)[C@@H](N)CCCCN)C(N)=O
32 to 64 µg/mL

###

- System: K. pneumoniae NCTC418
- RUN CONDITIONS: supplementary CSV; ranges of Table 1 given as one number
Exercise: state measured MIC K. pneumoniae NCTC418 for each of the molecules provided.
Numbers only, in µg/mL.

- MOLECULE: "CC(C)C[C@H](NC(=O)[C@H](CC(C)C)NC(=O)[C@H](CC(C)C)NC(=O)[C@H](CCCCN)NC(=O)[C@H](CC(C)C)NC(=O)[C@H](CC(C)C)NC(=O)[C@H](CCCCN)NC(=O)[C@@H](CC(C)C)NC(=O)[C@H](CC(C)C)NC(=O)[C@@H](CCCCN)NC(=O)[C@@H](N)CCCCN)C(N)=O [HP4, KkLlKLLKLLL]"
  MIC K. pneumoniae NCTC418 (µg/mL): 2

Please find the next molecule below.
Given CC(C)C[C@H](NC(=O)[C@H](CC(C)C)NC(=O)[C@H](CC(C)C)NC(=O)[C@@H](CCCCN)NC(=O)[C@H](CC(C)C)NC(=O)[C@H](CC(C)C)NC(=O)[C@@H](CCCCN)NC(=O)[C@H](CC(C)C)NC(=O)[C@H](CC(C)C)NC(=O)[C@@H](CCCCN)NC(=O)[C@H](N)CCCCN)C(N)=O [ln69, kkLLkLLkLLL] , state its recorded MIC K. pneumoniae NCTC418.
8

###

- System: K. pneumoniae NCTC418
- RUN CONDITIONS: MH broth pH 7.4, 16–20 h, 37 °C
MEASURE: MIC K. pneumoniae NCTC418 (µg/mL)
Numbers only, in µg/mL.

GET /values?readout=MIC K. pneumoniae NCTC418&item= CC(C)C[C@H](NC(=O)[C@H](CC(C)C)NC(=O)[C@H](CC(C)C)NC(=O)[C@H](CCCCN)NC(=O)[C@H](CC(C)C)NC(=O)[C@H](CC(C)C)NC(=O)[C@@H](CCCCN)NC(=O)[C@H](CC(C)C)NC(=O)[C@H](CC(C)C)NC(=O)[C@@H](CCCCN)NC(=O)[C@@H](N)CCCCN)C(N)=O
8
